biological target: human mAChR M1 (Homo sapiens, UniProt P11229); test: mAChR M1 cell-based functional assay (calcium mobilization), PAM mode: increase in the EC20 acetylcholine response
Sequence (P11229 whole entry): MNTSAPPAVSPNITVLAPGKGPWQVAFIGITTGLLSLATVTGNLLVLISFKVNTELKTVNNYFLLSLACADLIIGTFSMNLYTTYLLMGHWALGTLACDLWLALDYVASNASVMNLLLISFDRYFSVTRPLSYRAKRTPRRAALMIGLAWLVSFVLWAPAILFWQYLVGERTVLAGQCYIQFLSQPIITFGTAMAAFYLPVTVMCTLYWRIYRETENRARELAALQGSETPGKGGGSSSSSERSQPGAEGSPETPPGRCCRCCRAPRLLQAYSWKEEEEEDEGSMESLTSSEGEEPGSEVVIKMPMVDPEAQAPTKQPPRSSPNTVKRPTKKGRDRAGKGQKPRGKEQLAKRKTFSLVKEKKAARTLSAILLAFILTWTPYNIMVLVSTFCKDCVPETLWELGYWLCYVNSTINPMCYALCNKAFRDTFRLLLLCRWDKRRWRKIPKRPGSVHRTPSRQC

- Smiles Code: "[2H]c1nnc2cccc(-c3ccc(CN4C(=O)c5cccnc5C4([2H])[2H])cc3)n12"
  Relation Qualifier: ">"
  EC50 (nM): 10000
- Smiles Code: "[2H]C1([2H])c2ncccc2C(=O)N1Cc1ccc(-c2cccc3nncn23)cc1"
  Relation Qualifier: ">"
  EC50 (nM): 10000
- Smiles Code: "[2H]C1([2H])c2ncccc2C(=O)N1Cc1ccc(-c2cnc3nn(C)cc3c2)cc1C"
  Relation Qualifier: "="
  EC50 (nM): 2000
- Smiles Code: "[2H]C1([2H])c2ncccc2C(=O)N1Cc1c(C)cc(-c2ccc(OC3CC3)c3nn(C)cc23)cc1F"
  Relation Qualifier: "="
  EC50 (nM): 437
- Smiles Code: "[2H]C1([2H])c2ncccc2C(=O)N1Cc1c(F)cc(-c2cccc3c2cnn3C2COC2)cc1F"
  Relation Qualifier: "="
  EC50 (nM): 2170
- Smiles Code: "[2H]C1([2H])c2ncccc2C(=O)N1Cc1c(F)cc(-c2cc3cn(C)nc3cc2C)cc1F"
  Relation Qualifier: "="
  EC50 (nM): 4090
- Smiles Code: "[2H]C1([2H])c2ncccc2C(=O)N1Cc1c(F)cc(-c2ccc(C3CC3)c3nn(C)cc23)cc1F"
  Relation Qualifier: "="
  EC50 (nM): 789
- Smiles Code: "[2H]C1([2H])c2ncccc2C(=O)N1Cc1c(F)cc(-c2ccc(OC3CC3)c3nn(C)cc23)cc1C1CC1"
  Relation Qualifier: "="
  EC50 (nM): 429
- Smiles Code: "[2H]C1([2H])c2ncccc2C(=O)N1Cc1c(F)cc(-c2ccc(OCC)c3nn(C([2H])([2H])[2H])cc23)cc1F"
  Relation Qualifier: "="
  EC50 (nM): 164
- Smiles Code: "[2H]C1([2H])c2ncccc2C(=O)N1Cc1c(F)cc(-c2ccc(OCC)c3nn(C)cc23)cc1F"
  Relation Qualifier: "="
  EC50 (nM): 211
- Smiles Code: "[2H]C1([2H])c2ncccc2C(=O)N1Cc1c(F)cc(-c2ccc(C(F)(F)F)c3nn(C([2H])([2H])[2H])cc23)cc1F"
  Relation Qualifier: "="
  EC50 (nM): 592
- Smiles Code: "[2H]C1([2H])c2ncccc2C(=O)N1Cc1c(F)cc(-c2ccc(OC(C)C)c3c2cnn3C([2H])([2H])[2H])cc1F"
  Relation Qualifier: ">"
  EC50 (nM): 10000
- Smiles Code: "[2H]C1([2H])c2ncccc2C(=O)N1Cc1c(C)cc(-c2ccc(C(F)(F)F)c3nn(C)cc23)cc1F"
  Relation Qualifier: "="
  EC50 (nM): 768
- Smiles Code: "[2H]C1([2H])c2ncccc2C(=O)N1Cc1ccc(-c2ccc(F)c3nn(C([2H])([2H])[2H])cc23)cc1C"
  Relation Qualifier: "="
  EC50 (nM): 900
- Smiles Code: "[2H]C1([2H])c2ncccc2C(=O)N1Cc1c(F)cc(-c2cccc3nn(C([2H])([2H])[2H])cc23)cc1OC"
  Relation Qualifier: "="
  EC50 (nM): 760
- Smiles Code: "[2H]C1([2H])c2ncccc2C(=O)N1Cc1c(F)cc(-c2ccc(O[C@H](C)COC)c3nn(C)cc23)cc1F"
  Relation Qualifier: "="
  EC50 (nM): 540

The origin of these recorded values is patent US20240228489A1.
